Measured Quantity: melting point

Recorded results for 10 compounds are shown here.
[[record]]
compound = "C=CCNc1c([N+](=O)[O-])cc(C(=O)OC)c(Nc2ccc(I)cc2F)c1F"
result = "153 to 154 °C"

[[record]]
compound = "Cc1cc(-c2cc(=O)n(C)[nH]2)c(F)cc1Cl"
result = "155 to 156 °C"

[[record]]
compound = "Fc1cc(Cl)ccc1-n1nc2c(c1Cl)CSCC2"
result = "97 to 99 °C"

[[record]]
compound = "CC1(c2ccccc2)CN(c2ccnc(NC(=O)NCc3ccccn3)c2)C(=O)O1 (stereo not given)"
result = "194 to 195 °C"

[[record]]
compound = "C=CCc1c2nc(C(=O)OC)cc(Cl)c2cc2c(=O)cc(C(=O)OCC)oc12"
result = "197 to 198 °C"

[[record]]
compound = "CCOc1cc2cc(CO)nc(-c3ccc(Cl)c([N+](=O)[O-])c3)c2cc1OCC"
result = "187 to 188 °C"

[[record]]
compound = "COc1ccc(C(=O)Oc2ccc(C(=O)O)cc2F)cc1C12CC3CC(CC(C3)C1)C2"
result = "258 to 260 °C"

[[record]]
compound = "O=c1[nH]c2sccc2c(=O)n1CCN1CCN(c2ccccc2)CC1"
result = "228 to 230 °C"

[[record]]
compound = "CC(C)n1cc(-c2ccc(Oc3ccccc3)c(CO)c2)c2c(Cl)ncnc21"
result = "157 to 159 °C"

[[record]]
compound = "CC(C)NC(=NC#N)Nc1ccc(C2=NNC(=O)CC2C)cc1 (stereo not given)"
result = "255 °C"


// Input: O=C1Nc2ccccc2C12CCC2 . Output its melting point only.
140 to 145 °C

// Input: COC(=O)N=P(c1ccccc1)(c1ccccc1)c1ccccc1CN(C)C . Output its melting point only.
95 to 97 °C

* * *

Recorded melting point values for a group of compounds are listed next.

Use these answered entries as a reference point.
[[record]]
smiles_structure = "CC(C)(C)OC(=O)N1CCN(c2nc(N)nc3nc(N)c(-c4ccccc4)nc23)CC1"
measured_quantity = "melting point"
result = "245 to 246 °C"

[[record]]
smiles_structure = "O=c1c(Cl)c(S(=O)(=O)C2CCCCC2)cnn1-c1ccccc1"
measured_quantity = "melting point"
result = "195 to 196 °C"


Please look at the following compound next.
Write down melting point measured for item c1ccc2c3c([nH]c2c1)CCN(CCCCc1ccncc1)C3
204 to 206 °C

* * *

Reported melting point values are given for each entry in this list.

Worked examples follow.
[[record]]
compound = "Fc1cc(OCc2ccccc2)cnc1-c1ccccc1"
result = "105 to 106 °C"

[[record]]
compound = "Nc1sc2c(c1C(=O)c1ccc(Cl)s1)CCCC2"
result = "173 to 175 °C"

[[record]]
compound = "CC(C)n1c(=O)n(C)c2cc(-c3ncc(C(F)(F)F)cc3Cl)ccc21"
result = "108 to 109 °C"

[[record]]
compound = "CN(C)CCc1ccc(OCCCN2C(=O)c3ccccc3C2=O)cc1"
result = "81 to 82 °C"


Consider the compound CC(=O)NC(C)(C(=O)NS(=O)(=O)c1ccc(C)cc1)C(C)C (stereo not drawn) . State its measured melting point.
198 to 199 °C

Fill in reported melting point for this entry: O=C(CCCCCCNC(=O)C(=O)c1cn2c3c(cccc13)CCC2)NO
158 to 159 °C

Identify melting point associated with the compound CC(CCCc1ccc(F)cc1)c1cc(O)c2c(c1)OC(C)(C)c1ccncc1-2 (stereo not drawn)
72 to 74 °C

Retrieve melting point measured for COc1cc(C(=O)NS(=O)(=O)c2ccccc2C)ccc1Cc1c(Cl)n(C)c2cc(Cl)c(CCNC(=O)N(C)C)cc12 and print it.
236 to 238 °C
